Entry source: the PolyMetriX glass transition set

Collected glass transition temperature values appear next to each entry.
Provide the reading as a plain figure in °C.

> print(dat)
                                   compound  measure.unit  test.result
1     *CC(*)C(=O)c1ccc(OC)cc1 (repeat unit)            °C        46.00
2  *CC#CC#CCOc1ccc(C(=O)OCCN(CCOC(=O)c2ccc(O*)cc2)c2ccc(/N=N/c3ccc([N+](=O)[O-])cc3)cc2)cc1 (repeat unit)            °C       100.00

Enquiry: Item under review: *Oc1ccc(NC(=O)c2cc(NC(=O)c3ccccc3)cc(C(=O)Nc3ccc(*)cc3)c2)cc1 (repeat unit) . Reported glass transition temperature?
Return: 294.50

Enquiry: // glass transition temperature lookup, key: *c1ccc(Oc2ccc(C(c3ccc(Oc4ccc(N5C(=O)CC(=O)N(*)C5=S)cc4)cc3)(C(F)(F)F)C(F)(F)F)cc2)cc1 (repeat unit)
Return: 147.00

Enquiry: Reported glass transition temperature, compound *Oc1c(Br)cc(C(C)(C)c2cc(Br)c(OC(*)=O)c(Br)c2)cc1Br (repeat unit) : ____
Return: 228.50

###

Let's look at some compounds and their measured glass transition temperature.
Give the quantity in °C, number only.

Enquiry: Consider the compound shown here: *CCNC(=O)c1ccc([Si](C)(C)c2ccc(C(=O)NCCN(*)c3ccc(/C=C/c4ccc([N+](=O)[O-])cc4)cc3)cc2)cc1 (repeat unit) What is its recorded glass transition temperature?
Return: 150.00

Enquiry: Value lookup for glass transition temperature; key = *C(=O)Oc1ccc(OC(=O)c2ccc3c(c2)C(=O)N(c2ccc(Oc4ccc(Oc5ccc(N6C(=O)c7ccc(*)cc7C6=O)cc5)cc4)cc2)C3=O)cc1 (repeat unit)
Return: 230.00

Enquiry: Dear colleague, I am looking for the recorded glass transition temperature of the following compound: *CC(*)c1ccc([Si](C)(C)O[Si](C)(C)O[Si](C)(C)C)cc1 (repeat unit)
Return: -27.00

Enquiry: Consider the compound *c1ccc(C(=O)OCCCCCCCCCCOC(=O)c2ccc(-c3nnc(*)s3)cc2)cc1 (repeat unit) and give its measured glass transition temperature.
Return: 79.00

Enquiry: Suppose we examine the compound *c1ccc(N(c2ccc(C#N)cc2)c2ccc(N3C(=O)c4ccc(Oc5ccc(C(C)(C)c6ccc(Oc7ccc8c(c7)C(=O)N(*)C8=O)cc6)cc5)cc4C3=O)cc2)cc1 (repeat unit) ; what glass transition temperature value has been reported?
Return: 230.00

Enquiry: # query: glass transition temperature of entry *OC(=O)c1ccc(CCCCc2ccc(C(*)=O)cc2)cc1 (repeat unit)
Return: 46.00

Enquiry: Entry *CCCCCCCCNC(=O)CCCCC(=O)N* (repeat unit) : reported glass transition temperature = ?
Return: 50.00

Enquiry: Any idea what its glass transition temperature is? The compound is *C(=O)c1ccc2c(c1)C(=O)N(c1ccc(OCCOc3ccc(N4C(=O)c5ccc(*)cc5C4=O)cc3)cc1)C2=O (repeat unit)
Return: 246.00

###

Reported glass transition temperature values are given for each entry in this list.
Number only, in °C; omit the unit.

Solved entries:
> print(dat)
                                   compound  measure.unit  test.result
1        *CC(*)(CCCCC)C(=O)OC (repeat unit)            °C        53.00
2  *ON(C(F)(F)F)C(F)(Cl)C(*)(F)F (repeat unit)            °C       -50.00
3  *CCCCCCOC(=O)C(CCCCCBr)C(=O)OCCCCCCOc1ccc(-n2on2-c2ccc(O*)cc2)cc1 (repeat unit)            °C         7.00

Please examine the following record next.
Enquiry: Sample *Oc1ccc(C(=O)OCCOCCOCCOC(=O)c2ccc(OC(=O)c3ccc(C(*)=O)cc3)cc2)cc1 (repeat unit) — what was its glass transition temperature?
Return: 30.00

###

Item-by-item account of glass transition temperature
// return numeric value only (unit: °C, not printed)

Completed entries (count: 5):
> print(dat)
                                   compound  test.result
1  *O[Si](C)(C)c1ccc(-c2ccc([Si](*)(C)C)cc2)cc1 (repeat unit)        67.00
2  *CCCCCCNC(=O)CCC(C)(C)c1ccc(C(C)(C)CCC(=O)N*)cc1 (repeat unit)         93.2
3  *Oc1ccc(NC(=O)Nc2ccccc2CCc2ccccc2NC(=O)Nc2ccc(*)cc2)cc1 (repeat unit)       232.00
4      *CCCCCCCCCCCCCCC(=O)N* (repeat unit)        -7.00
5  */C=C/c1ccc(OC(=O)CCCCCCCCC(=O)Oc2cccc(-c3nnc(*)s3)c2)cc1 (repeat unit)        37.00

Enquiry: Report glass transition temperature for *CC(c1ccccc1)C1C(=O)N(CCCCNC(=O)C(F)(F)C(F)(F)C(F)(F)C(F)(F)C(F)(F)C(F)(F)C(F)(F)F)C(=O)C1* (repeat unit) please.
Return: 113.00

Enquiry: For *Oc1c(C)cc(C(C)(C)c2cc(C)c(OC(=O)CCCCCC(*)=O)c(C)c2)cc1C (repeat unit) , what is its reported glass transition temperature?
Return: 84.00

Enquiry: Query: glass transition temperature; subject: *CC(*)C(=O)OC12CC3CC(C)(CC(C)(C3)C1)C2 (repeat unit)
Return: 104.00

Enquiry: I'd like to know its glass transition temperature. The compound in question is *CCCCC(=O)NCc1ccc(CNC(=O)CCCCS*)cc1 (repeat unit)
Return: 70.00

Enquiry: Requested read-out: glass transition temperature. Entry: *CC(*)C(=O)Oc1ccc(Cl)cc1Cl (repeat unit)
Return: 60.00

###

# glass transition temperature per entry
Report the value in °C with no unit label.

Reference set, count: 5
> print(dat)
                                   compound  test.result
1  *CC(*)(C)C(=O)OCCCCCCCCCCOc1ccc(C#Cc2cc(OC)c(/C=C/c3ccncc3)cc2OC)cc1 (repeat unit)        87.10
2  *C1C(=O)N(CCCCCCCOc2ccc(-c3ccc(C#N)cc3)cc2)C(=O)C1* (repeat unit)        61.00
3  *CC(*)c1ccc(O)cc1 (repeat unit) [Poly(4-hydroxystyrene)]       157.42
4  *CCN(CCOC(=O)Nc1ccc(Cc2ccc(NC(=O)O*)cc2)cc1)c1ccc(/N=N/c2ccc([N+](=O)[O-])cc2)c(C)c1 (repeat unit)       115.00
5  *c1ccc2c(c1)C(=O)N(c1c(C)c(C)c(N3C(=O)c4ccc(C(*)(C(F)(F)F)C(F)(F)F)cc4C3=O)c(C)c1C)C2=O (repeat unit)       420.00

Then there is this compound:
Enquiry: Given *CC(*)c1ccc(OC)cc1 (repeat unit) [Poly(p-methoxy styrene) ] , state its recorded glass transition temperature.
Return: 89

###

Property: glass transition temperature; scope: individual molecules
Provide only the numeric value, understood in °C.

Record excerpt, results attached:
> print(dat)
                                   molecule  test.result
1  *CC(*)c1ccc([Si](C)(C)C)cc1 (repeat unit)       136.00
2       */C(Cl)=C(/*)CCCCCCCC (repeat unit)        90.00
3  *c1ccc(Sc2ccc(Sc3ccc(Sc4ccc(S(*)(=O)=O)cc4S(=O)(=O)O)cc3)cc2)c(S(=O)(=O)O)c1 (repeat unit)       202.00

Enquiry: What measured glass transition temperature goes with *c1ccc2c(c1)Sc1cc(-c3sc4cc(*)sc4c3CCCCC)ccc1N2CCCCCCCCCC (repeat unit) ?
Return: 131.00

Enquiry: Quick one: glass transition temperature for *CCCCCCCCCCC(Cl)C(*)Cl (repeat unit) ?
Return: -32.00

Enquiry: # lookup: glass transition temperature of *c1ccc(OCCOc2cccc(N3C(=O)c4ccc(Oc5ccc6c(c5)C(=O)N(*)C6=O)cc4C3=O)c2)cc1 (repeat unit)
Return: 178.50

Enquiry: Tell me the measured glass transition temperature of *O[Si](*)(C)CC (repeat unit) , please.
Return: -133.00

Enquiry: Any idea what glass transition temperature was measured for *CC(*)CCC1CCCCC1 (repeat unit) ?
Return: 40.00

Enquiry: // query glass transition temperature value for entry *C(=O)c1ccc2c(c1)C(=O)N(c1ccc(/C=C/c3ccc(N4C(=O)c5ccc(*)cc5C4=O)cc3)cc1)C2=O (repeat unit)
Return: 303.00

Enquiry: Endpoint output: glass transition temperature of *CC(*)(Cl)C(=O)OCCOc1ccc(C(=O)Oc2ccc(OCCCC)cc2)cc1 (repeat unit) . Value?
Return: 153.00

Enquiry: Look at this molecule and give its reported glass transition temperature. *c1ccc(Oc2ccc(C(C)(C)c3ccc(Oc4ccc(-c5nnc(*)o5)cc4)cc3)cc2)cc1 (repeat unit)
Return: 180.00

Enquiry: Name the reported glass transition temperature value associated with the molecule *CC1CCC(COP(=O)(/N=N/c2ccc(Oc3ccc(/N=N/P(=O)(O*)OC)cc3)cc2)OC)CC1 (repeat unit)
Return: 50.00
